The measured values listed here are drawn from ChEMBL document CHEMBL3352173.

Tested on: Moraxella catarrhalis
Method summary: Antimicrobial activity against Moraxella catarrhalis by broth microdilution/CLSI method
Type: functional
Test context: Moraxella catarrhalis; read-out: MIC
Property: MIC

Worked examples, 6 molecules total:
[
  {
    "Molecule": "CO[C@H]1CN(c2nc(C(=O)NC[C@H](C)OC)c(C(=O)O)s2)CC[C@H]1NC(=O)c1[nH]c(C)c(Cl)c1Cl",
    "Tgt": "Moraxella catarrhalis",
    "Value reported": "< 0.008 µg/mL"
  },
  {
    "Molecule": "Cc1[nH]c(C(=O)N[C@@H]2CCN(c3ncc(C(=O)O)s3)CC23OCC(C)(C)CO3)c(Cl)c1Cl",
    "Tgt": "Moraxella catarrhalis",
    "Value reported": "< 0.063 µg/mL"
  },
  {
    "Molecule": "COC[C@H](C)NC(=O)c1nc(N2CC[C@@H](NC(=O)c3[nH]c(C)c(Cl)c3Cl)[C@@H](OC)C2)sc1C(=O)O",
    "Tgt": "Moraxella catarrhalis",
    "Value reported": "< 0.008 µg/mL"
  },
  {
    "Molecule": "CO[C@H]1CN(c2nc(-c3ncc[nH]3)c(C(=O)O)s2)CC[C@H]1NC(=O)c1[nH]c(C)c(Cl)c1Cl",
    "Tgt": "Moraxella catarrhalis",
    "Value reported": "< 0.06 µg/mL"
  },
  {
    "Molecule": "Cc1[nH]c(C(=O)N[C@@H]2CCN(c3ncc(C(=O)O)s3)C[C@@H]2C)c(Cl)c1Cl (racemic)",
    "Tgt": "Moraxella catarrhalis",
    "Value reported": "0.5 µg/mL"
  },
  {
    "Molecule": "CO[C@H]1CN(c2nc(-c3nccn3C)c(C(=O)O)s2)CC[C@H]1NC(=O)c1[nH]c(C)c(Cl)c1Cl",
    "Tgt": "Moraxella catarrhalis",
    "Value reported": "< 0.06 µg/mL"
  }
]

Continue with the next molecule.
Query string: Any idea what its MIC is? The molecule is Cc1[nH]c(C(=O)N[C@@H]2CCN(c3ncc(C(=O)O)s3)C[C@@H]2S(C)(=O)=O)c(Cl)c1Cl (racemic)
Result string: > 8 µg/mL

* * *

Method summary: Dissociation constant, pKa of the compound
Assay type: physicochemical
The molecules listed here are annotated with their pKa.
Number only, please.

[
  {
    "Entry smiles": "CO[C@H]1CN(c2nc(-c3ncccn3)c(C(=O)O)s2)CC[C@H]1NC(=O)c1[nH]c(C)c(Cl)c1Cl",
    "Value reported": 5.2
  }
]

Query string: Reported pKa, molecule COCCNC(=O)c1nc(N2CC[C@@H](NC(=O)c3[nH]c(C)c(Cl)c3Cl)[C@@H](OC)C2)sc1C(=O)O : ____
Result string: 4.4

Query string: So what's the measured pKa for this one? COCC(COC)NC(=O)c1nc(N2CC[C@@H](NC(=O)c3[nH]c(C)c(Cl)c3Cl)[C@@H](OC)C2)sc1C(=O)O
Result string: 4.5

Query string: // query pKa value for entry COC[C@H](C)NC(=O)c1nc(N2CC[C@@H](NC(=O)c3[nH]c(C)c(Cl)c3Cl)[C@@H](OC)C2)sc1C(=O)O
Result string: 4.2

* * *

Listed next: entries and their corresponding log10 MIC.
System: Moraxella catarrhalis
Method summary: Antimicrobial activity against Moraxella catarrhalis by broth microdilution/CLSI method
Format: functional
Test context: Moraxella catarrhalis; read-out: MIC
Would you kindly interpret these values as log10 of MIC expressed in µg/mL?

Example cases with answers are listed next.
[
  {
    "Compound": "CO[C@H]1CN(c2nc(C(C)=O)c(C(=O)O)s2)CC[C@H]1NC(=O)c1[nH]c(C)c(Cl)c1Cl",
    "Value reported": -1.70
  },
  {
    "Compound": "CO[C@H]1CN(c2nc(C(=O)NCC3OCCO3)c(C(=O)O)s2)CC[C@H]1NC(=O)c1[nH]c(C)c(Cl)c1Cl",
    "Value reported": -1.89
  },
  {
    "Compound": "COCCO[C@H]1CN(c2ncc(C(=O)O)s2)CC[C@H]1NC(=O)c1[nH]c(C)c(Cl)c1Cl (racemic)",
    "Value reported": 0.00
  },
  {
    "Compound": "CO[C@H]1CN(c2nc(C(=O)N(C)C)c(C(=O)O)s2)CC[C@H]1NC(=O)c1[nH]c(C)c(Cl)c1Cl (racemic)",
    "Value reported": 0.30
  }
]

Okay, next one:
Query string: Would you mind telling me what log10 MIC value was observed for CO[C@H]1CO[C@]2(CN(c3ncc(C(=O)O)s3)CC[C@H]2NC(=O)c2[nH]c(C)c(Cl)c2Cl)OC1 (relative stereo) ?
Result string: -0.89

* * *

Listed below: EC50 values for each entry.
Tgt: ATP-binding cassette sub-family C member 2 (Rattus norvegicus, UniProt Q63120)
Sequence (Q63120 whole entry): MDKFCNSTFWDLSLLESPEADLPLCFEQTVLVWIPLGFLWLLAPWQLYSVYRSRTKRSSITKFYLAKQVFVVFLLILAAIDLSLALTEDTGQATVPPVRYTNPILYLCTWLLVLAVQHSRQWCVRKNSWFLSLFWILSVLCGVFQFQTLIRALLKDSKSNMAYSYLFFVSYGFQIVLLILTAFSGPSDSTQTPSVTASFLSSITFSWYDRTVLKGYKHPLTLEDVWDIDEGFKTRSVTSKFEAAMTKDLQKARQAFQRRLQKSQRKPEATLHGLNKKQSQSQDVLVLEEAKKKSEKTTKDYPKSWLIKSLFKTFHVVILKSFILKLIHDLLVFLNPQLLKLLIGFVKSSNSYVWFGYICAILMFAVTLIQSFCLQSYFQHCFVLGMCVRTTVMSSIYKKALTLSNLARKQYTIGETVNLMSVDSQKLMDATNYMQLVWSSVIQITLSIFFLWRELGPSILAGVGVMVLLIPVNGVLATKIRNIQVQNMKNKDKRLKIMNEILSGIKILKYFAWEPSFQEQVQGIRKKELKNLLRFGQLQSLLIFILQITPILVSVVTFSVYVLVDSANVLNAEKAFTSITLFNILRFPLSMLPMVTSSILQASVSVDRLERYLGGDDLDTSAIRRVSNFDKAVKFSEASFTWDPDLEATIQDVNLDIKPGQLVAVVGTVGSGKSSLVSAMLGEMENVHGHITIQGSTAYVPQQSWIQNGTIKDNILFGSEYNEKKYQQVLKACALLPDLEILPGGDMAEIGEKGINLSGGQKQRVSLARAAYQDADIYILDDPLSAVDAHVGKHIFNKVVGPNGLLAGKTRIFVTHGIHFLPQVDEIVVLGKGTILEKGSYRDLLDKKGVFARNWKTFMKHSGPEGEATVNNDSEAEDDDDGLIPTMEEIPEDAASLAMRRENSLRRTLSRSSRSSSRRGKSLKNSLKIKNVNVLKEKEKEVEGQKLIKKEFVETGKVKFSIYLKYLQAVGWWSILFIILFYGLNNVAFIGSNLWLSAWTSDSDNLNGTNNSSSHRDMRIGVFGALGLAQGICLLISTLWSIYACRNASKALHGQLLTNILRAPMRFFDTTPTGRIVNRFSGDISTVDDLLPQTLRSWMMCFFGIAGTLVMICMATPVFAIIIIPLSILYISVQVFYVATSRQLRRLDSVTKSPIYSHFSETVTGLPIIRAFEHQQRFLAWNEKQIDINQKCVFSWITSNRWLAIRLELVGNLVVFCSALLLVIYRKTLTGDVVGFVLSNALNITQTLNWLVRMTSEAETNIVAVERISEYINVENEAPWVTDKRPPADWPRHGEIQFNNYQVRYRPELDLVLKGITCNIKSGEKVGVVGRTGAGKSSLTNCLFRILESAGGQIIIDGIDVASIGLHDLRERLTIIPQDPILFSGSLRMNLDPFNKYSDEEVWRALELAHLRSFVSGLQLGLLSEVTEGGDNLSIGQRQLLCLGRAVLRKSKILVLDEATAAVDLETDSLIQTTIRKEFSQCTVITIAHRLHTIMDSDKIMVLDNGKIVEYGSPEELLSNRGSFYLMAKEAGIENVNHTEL
Method summary: Stimulation of ATPase activity of rat Mrp2 assessed as inorganic phosphate
Dear colleague, please return just the value in µM, with no unit written.

[
  {
    "Entry smiles": "Cc1[nH]c(C(=O)NC2CCN(c3ncc(C(=O)O)s3)CC2)c(Cl)c1Cl",
    "Unit name": "µM",
    "Value reported": 27
  },
  {
    "Entry smiles": "CO[C@H]1CN(c2ncc(C(=O)O)s2)CC[C@H]1NC(=O)c1[nH]c(C)c(Cl)c1Cl",
    "Unit name": "µM",
    "Value reported": 38
  }
]

Please turn your attention to the following entry.
Query string: Please look up its EC50: CO[C@H]1CN(c2nc(-c3ncnn3C)c(C(=O)O)s2)CC[C@H]1NC(=O)c1[nH]c(C)c(Cl)c1Cl
Result string: 110

* * *

Recorded measurements of bioavailability, one per entry
Method summary: Bioavailability in CD1 mouse at 10 mg/kg, […]
Type: ADME, organism-based
Test context: in vivo

Please review the following examples before continuing.
[
  {
    "Compound": "COCCNC(=O)c1nc(N2CC[C@@H](NC(=O)c3[nH]c(C)c(Cl)c3Cl)[C@@H](OC)C2)sc1C(=O)O",
    "bioavailability": "57%"
  },
  {
    "Compound": "COC[C@H](C)NC(=O)c1nc(N2CC[C@@H](NC(=O)c3[nH]c(C)c(Cl)c3Cl)[C@@H](OC)C2)sc1C(=O)O [AZD-5099]",
    "bioavailability": "100%"
  },
  {
    "Compound": "CO[C@H]1CN(c2nc(-c3ncnn3C)c(C(=O)O)s2)CC[C@H]1NC(=O)c1[nH]c(C)c(Cl)c1Cl",
    "bioavailability": "74%"
  },
  {
    "Compound": "CO[C@H]1CN(c2nc(-c3ncccn3)c(C(=O)O)s2)CC[C@H]1NC(=O)c1[nH]c(C)c(Cl)c1Cl",
    "bioavailability": "100%"
  }
]

Next:
Query string: Query (compound): COCC(COC)NC(=O)c1nc(N2CC[C@@H](NC(=O)c3[nH]c(C)c(Cl)c3Cl)[C@@H](OC)C2)sc1C(=O)O ; field requested: bioavailability
Result string: 25%

* * *

Method summary: AUC in methicillin-sensitive Staphylococcus aureus ARC516 infected in neutropenic CD1 mouse thigh model at 30 mg/kg, ip q6
Format: ADME, organism-based
Parameters: dose 30 mg/kg, route intraperitoneal
Test context: in vivo
Property: AUC (ng·h/mL)
Dear colleague, please return just the value in ng·h/mL, with no unit written.

Query string: Fill in the blank: the reported AUC of CO[C@H]1CN(c2nc(-c3ncccn3)c(C(=O)O)s2)CC[C@H]1NC(=O)c1[nH]c(C)c(Cl)c1Cl is ____.
Result string: 37600

* * *

Tested on: Staphylococcus aureus
Method summary: Antimicrobial activity against methicillin, quinolone-resistant Staphylococcus aureus by broth microdilution/CLSI method
Assay type: functional
Test context: Staphylococcus aureus; read-out: MIC
Property: MIC (µg/mL)
Use µg/mL as the unit, but write only the number.

[
  {
    "Compound": "CO[C@H]1CN(c2nc(C(=O)O)cs2)CC[C@H]1NC(=O)c1[nH]c(C)c(Cl)c1Cl",
    "MIC / µg/mL": 0.32
  }
]

Query string: Report MIC for CO[C@H]1CO[C@]2(CN(c3ncc(C(=O)O)s3)CC[C@H]2NC(=O)c2[nH]c(C)c(Cl)c2Cl)OC1 (relative stereo) please.
Result string: 4

Query string: Give its MIC value. Item: CO[C@H]1CN(c2nc(-c3ncccn3)c(C(=O)O)s2)CC[C@H]1NC(=O)c1[nH]c(C)c(Cl)c1Cl
Result string: 0.12

Query string: May I ask what MIC has been recorded for CO[C@H]1CN(c2nc(-c3ncnn3C)c(C(=O)O)s2)CC[C@H]1NC(=O)c1[nH]c(C)c(Cl)c1Cl ?
Result string: 0.04

Query string: What value of MIC has been recorded for this entry: CO[C@H]1CN(c2nc(-c3nc(C)no3)c(C(=O)O)s2)CC[C@H]1NC(=O)c1[nH]c(C)c(Cl)c1Cl
Result string: 0.13
